# PROTOCOL: Ratio of total drug concentration in liver to plasma in CD-1 mouse at 10 mg/kg, po measured for 12 hrs by LC-MS/MS analysis
# Format: ADME, organism-based
# ASSAY_CONTEXT: liver and plasma
MEASUREMENT_TYPE: Kp at 12 h
Answer using only a numeral; do not append any unit.

-- ask Value lookup for Kp at 12 h; key = COc1cc(OC(F)F)c2nc3c(n2c1)C[C@@H](C(C)(C)C)c1cc(C(=O)O)c(=O)[nH]c1-3
-- reply 109

-- ask What value of measured Kp at 12 h is listed for CC(C)(C)[C@@H]1Cc2c(nc3c(C(F)(F)F)cccn23)-c2[nH]c(=O)c(C(=O)O)cc21 ?
-- reply 72

-- ask # get_value(readout='Kp at 12 h', item= CC(C)(C)[C@@H]1Cc2c(nc3c(C(F)(F)F)cc(C4CC4)cn23)-c2[nH]c(=O)c(C(=O)O)cc21 )
-- reply 56

-- ask Find the recorded Kp at 12 h belonging to COc1cccn2c3c(nc12)-c1[nH]c(=O)c(C(=O)O)cc1[C@H](C(C)(C)C)C3 and report it.
-- reply 11

-- ask Which Kp at 12 h value belongs to Cn1c2c(cc(C(=O)O)c1=O)[C@H](C(C)(C)C)Cc1c-2nc2c(C(F)(F)F)cc(Cl)cn12 ?
-- reply 43

-- ask What measured Kp at 12 h goes with COc1ccn2c3c(nc2c1OC(F)F)-c1[nH]c(=O)c(C(=O)O)cc1[C@H](C(C)(C)C)C3 ?
-- reply 24

-- ask For the molecule COCCCOc1cc2c(nc1OC)-c1cc(=O)c(C(=O)O)cn1[C@H](C(C)C)C2 , what Kp at 12 h is on record?
-- reply 6

-- ask What measured Kp at 12 h goes with CC(C)(C)[C@@H]1Cc2c(nc3c(OC(F)F)cc(F)cn23)-c2[nH]c(=O)c(C(=O)O)cc21 ?
-- reply 105

-- ask Suppose we examine the molecule CC(C)(C)[C@@H]1Cc2c(nc3c(OC(F)F)cccn23)-c2[nH]c(=O)c(C(=O)O)cc21 ; what Kp at 12 h value has been reported?
-- reply 133
